- assay.info: Intranasal bioavailability of hydrocodone conjugates in rats, LC/MS/MS
- measurement.context: intranasal, 1 mg/kg dose, 30 Minutes
Where a SMILES comes first, the peptide text is derived from it. The star is where a group is joined. X1 = COc1ccc2c3c1O[C@H]1C(O*)=CC[C@H]4[C@@H](C2)N(C)CC[C@]314
hydrocodone plus hydromorphone concentration values, listed per item
readout.label: hydrocodone plus hydromorphone concentration (ng/mL)

compound	obs.value
CC[C@H](C)[C@H](NC(=O)[C@H](Cc1ccccc1)NC(=O)[C@H](Cc1ccccc1)NC(=O)[C@H](Cc1ccc(O)cc1)NC(=O)[C@@H](N)Cc1ccc(O)cc1)C(=O)OC1=CC[C@H]2[C@H]3Cc4ccc(OC)c5c4[C@@]2(CCN3C)[C@H]1O5 [YYFFI[SEQ ID NO: 3]-HC] (H-YYFFI-X1)	16
COc1ccc2c3c1O[C@H]1C(OC(=O)[C@H](Cc4ccccc4)NC(=O)[C@H](Cc4ccccc4)NC(=O)[C@H](Cc4ccccc4)NC(=O)[C@H](CCC(=O)O)NC(=O)[C@@H](N)CCC(=O)O)=CC[C@H]4[C@@H](C2)N(C)CC[C@]314 [EEFFF[SEQ ID NO: 3]-HC] (H-EEFFF-X1)	24
CC[C@H](C)[C@H](NC(=O)[C@H](Cc1ccc(O)cc1)NC(=O)[C@@H](N)Cc1ccc(O)cc1)C(=O)OC1=CC[C@H]2[C@H]3Cc4ccc(OC)c5c4[C@@]2(CCN3C)[C@H]1O5 [YYI-HC, Tyr-Tyr-Ile-Hydrocodone]	12
CC[C@H](C)[C@H](NC(=O)[C@H](CC(=O)O)NC(=O)[C@@H](N)CC(=O)O)C(=O)OC1=CC[C@H]2[C@H]3Cc4ccc(OC)c5c4[C@@]2(CCN3C)[C@H]1O5 [DDI-HC, Asp-Asp-Ile-Hydrocodone]	64
